Molecular target: KRas(G12V) (Homo sapiens (Human), UniProt P01116, G12V)
Sequence (P01116-2 other isoform, or with tags, fused parts or gaps G12V): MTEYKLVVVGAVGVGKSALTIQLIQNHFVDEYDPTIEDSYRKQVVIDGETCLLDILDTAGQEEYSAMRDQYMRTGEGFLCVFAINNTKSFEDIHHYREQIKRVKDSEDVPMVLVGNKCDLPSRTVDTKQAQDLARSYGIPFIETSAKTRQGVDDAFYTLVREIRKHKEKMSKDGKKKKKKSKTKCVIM
Test: KRas(G12V) GDP HTRF (BODIPY-GDP exchange TR-FRET)
Quantity kind: IC50 (nM)

Compound | IC50 / nM
Cc1cc(N)nc(-c2cc3nc(OC[C@@]45CCCN4CC4(C5)OCCO4)nc4c3c(c2Cl)OCCN4Cc2cccnc2N)c1C(F)(F)F | 0.39
Cc1cc(N)nc(-c2cc3ncnc4c3c(c2Cl)OCCN4Cc2cncc(N)c2)c1C(F)(F)F | 540
Cc1cc(N)nc(-c2c(Cl)c3c4c(nc(OC[C@@H]5CCCN5C)nc4c2F)N([C@H](C)c2cccnc2N)CCO3)c1C(F)(F)F (atropisomer, axis not shown) | 0.07
Cc1cc(N)nc(-c2c(Cl)c3c4c(nc(OC[C@@H](C)N5CCOCC5)nc4c2F)N([C@H](C)c2cccnc2N)CCO3)c1C(F)(F)F (atropisomer, axis not shown) [Example 95b] | 0.12

A: Cc1cc(N)nc(-c2cc3ncnc4c3c(c2Cl)OCCN4C(C)(C)c2cccnc2N)c1C(F)(F)F
B: Cc1cc(N)nc(-c2c(Cl)c3c4c(nc(OC[C@H]5COCCN5)nc4c2F)N([C@H](C)c2cccnc2N)CCO3)c1C(F)(F)F (atropisomer, axis not shown)
Data request: Field: lower recorded IC50 (choose A or B ) Answer format: the label of the selected item.
Data returned: B
